# IC50 per entry
biological target: human P2X3 receptor (Homo sapiens (Human)); assay: P2X3 receptor inhibition, ATP-evoked Fluo-3 calcium fluorescence (FDSS 3000); settings: C6BU-1 cell transfected with human P2X3 receptor gene; ATP-evoked Fluo-3 fluorescence
Sequence (P56373 whole entry): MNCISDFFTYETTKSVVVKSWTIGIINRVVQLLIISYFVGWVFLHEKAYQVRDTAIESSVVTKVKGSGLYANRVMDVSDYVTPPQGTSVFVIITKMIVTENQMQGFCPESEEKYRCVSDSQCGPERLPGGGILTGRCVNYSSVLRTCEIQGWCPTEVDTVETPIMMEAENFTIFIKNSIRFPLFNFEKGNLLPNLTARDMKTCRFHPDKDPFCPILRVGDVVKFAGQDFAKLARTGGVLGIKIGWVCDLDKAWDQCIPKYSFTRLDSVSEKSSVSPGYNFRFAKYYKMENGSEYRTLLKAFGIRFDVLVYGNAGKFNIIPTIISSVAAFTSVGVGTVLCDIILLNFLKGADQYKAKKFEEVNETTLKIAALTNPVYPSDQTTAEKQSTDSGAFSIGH
Only the number, expressed in nM, is required.

Field: example entries. Status: answers known.
[
  {
    "Molecule": "CCc1nc2cc(N3C(=O)C(O)=C(C(=O)C(C)C)C3c3ccccc3OC(C)C)ccc2o1 (stereo not shown)",
    "IC50, nM": 453
  },
  {
    "Molecule": "Cc1ccc(-c2ccc(N3C(=O)C(O)=C(C(=O)C(C)C)C3c3ccccc3OC(F)(F)F)cc2)s1 (stereo not shown)",
    "IC50, nM": 78
  },
  {
    "Molecule": "COc1ccccc1C1c2c(C3CC3)n[nH]c2C(=O)N1c1ccc(-c2ccsc2)cc1 (stereo not shown)",
    "IC50, nM": 24
  },
  {
    "Molecule": "Cc1ccc(-c2ccc(N3C(=O)C(O)=C(C(=O)CC(C)C)C3c3ccccc3OC(C)C)cc2)o1 (stereo not shown)",
    "IC50, nM": 14
  },
  {
    "Molecule": "COc1ccccc1C1c2c(C(C)(C)CO)n[nH]c2C(=O)N1c1ccc(-c2ccoc2)cn1 (stereo not shown)",
    "IC50, nM": 43
  }
]

Task item: Notebook entry, human P2X3 receptor (Homo sapiens (Human)) assay: IC50 of Cc1ccc(-c2ccc(N3C(=O)C(O)=C(C(=O)C(C)C)C3c3ccccc3CCC(=O)NC(C)C)cc2)o1 (stereo not shown) = ?
Reply: 119

Task item: Notebook entry, human P2X3 receptor (Homo sapiens (Human)) assay: IC50 of CC(C)C(=O)C1=C(O)C(=O)N(c2ccc(-c3ccsc3)cc2)C1c1ccccc1OC(F)(F)F (stereo not shown) = ?
Reply: 34

* * *

target: human P2X3 receptor (Homo sapiens (Human)); assay: P2X3 receptor inhibition, ATP-evoked Fluo-3 calcium fluorescence (FDSS 3000); details: C6BU-1 cell transfected with human P2X3 receptor gene; ATP-evoked Fluo-3 fluorescence
# pIC50 per entry
pIC50 here: minus log base 10 of the concentration, concentration in moles per litre.

Field: example entries. Status: answers known.
[
  {
    "Compound": "COc1ccc2nc(N3C(=O)c4[nH]nc(C(C)(C)CO)c4C3c3ccccc3OC)sc2c1 (centres unmarked)",
    "Number": 6.98
  },
  {
    "Compound": "COCCOc1ncccc1C1C(C(=O)CC(C)C)=C(O)C(=O)N1c1ccc(-c2ccc(C)o2)cc1 (centres unmarked)",
    "Number": 7.68
  },
  {
    "Compound": "COC(=O)COCc1ncccc1C1c2c(C(C)(C)C)n[nH]c2C(=O)N1c1ccc(-c2ccsc2)cc1 (centres unmarked)",
    "Number": 6.67
  },
  {
    "Compound": "CC(C)CC(=O)C1=C(O)C(=O)N(c2ccc(-c3ccon3)cc2)C1c1ccccc1OC(F)(F)F (centres unmarked)",
    "Number": 6.71
  },
  {
    "Compound": "Cc1ccc(-c2ccc(N3C(=O)C(O)=C(C(=O)C(C)C)C3c3ccccc3C(=O)N3CCOCC3)cc2)o1 (centres unmarked)",
    "Number": 6.67
  }
]

Task item: Dear colleague, I am looking for the recorded pIC50 of the following compound: CC(C)CC(=O)C1=C(O)C(=O)N(c2ccc(-c3ccon3)cc2)C1c1ccccc1OCCO (centres unmarked)
Reply: 6.51

Task item: Dear colleague, I am looking for the recorded pIC50 of the following compound: COc1ccccc1C1c2c(C(C)(C)C)n[nH]c2C(=O)N1c1ccc(C(C)(C)C)cc1 (centres unmarked)
Reply: 6.85

Task item: Dear colleague, I am looking for the recorded pIC50 of the following compound: COc1ccccc1C1C(C(=O)CC(C)C)=C(O)C(=O)N1c1ccc(-c2ccsc2)cc1 (centres unmarked)
Reply: 7.46
